B1: DCAF4 (parent)
chain: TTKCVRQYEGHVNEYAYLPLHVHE

# Variants of: B1
# test_method_notes: protein stability index of a GFP-peptide fusion (GPS, HEK-293T) (PSI 1-6); higher = more stable;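 further: lentivirally expressed fusions sorted by FACS into six bins by GFP to DsRed ratio, PSI derived from sequencing read proportions per bin multiplied by bin number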
# particulars: c terminus: a fixed tail appended
measured_endpoint: protein stability index
When you answer, write just the number.

Task item: Entry under review: TTSCVRQYEGHVNEYAYLPLHVHE [K3S] . Reported protein stability index?
Reply: 2.71

Task item: Entry under review: TTKCVRQYEGHVNEYHYLPLHVHE [A16H] . Reported protein stability index?
Reply: 3.05

Task item: Entry under review: TTKCSRQYEGHVNEYAYLPLHVHE [V5S] . Reported protein stability index?
Reply: 1.82

Task item: Entry under review: LTKCVRQYEGHVNEYAYLPLHVHE [T1L] . Reported protein stability index?
Reply: 2.99

Task item: Entry under review: GTKCVRQYEGHVNEYAYLPLHVHE [T1G] . Reported protein stability index?
Reply: 2.99

Task item: Entry under review: TTKCVRQYEGHVNEYAYLPLHMHE [V22M] . Reported protein stability index?
Reply: 3.06

Task item: Entry under review: TTKCVRQYEGHVNEYAYLPLCVHE [H21C] . Reported protein stability index?
Reply: 2.56

Task item: Entry under review: TTKCVRQYEGHVWEYAYLPLHVHE [N13W] . Reported protein stability index?
Reply: 1.87

Task item: Entry under review: TTKCHRQYEGHVNEYAYLPLHVHE [V5H] . Reported protein stability index?
Reply: 2.19

Task item: Entry under review: TTKCVRQYEGHQNEYAYLPLHVHE [V12Q] . Reported protein stability index?
Reply: 2.58

Task item: Entry under review: TTKCVRQYEGHVNEYAILPLHVHE [Y17I] . Reported protein stability index?
Reply: 2.86

Task item: Entry under review: TTKCVRQYEGHVNEYAYLTLHVHE [P19T] . Reported protein stability index?
Reply: 1.53

Task item: Entry under review: ITKCVRQYEGHVNEYAYLPLHVHE [T1I] . Reported protein stability index?
Reply: 2

Task item: Entry under review: KTKCVRQYEGHVNEYAYLPLHVHE [T1K] . Reported protein stability index?
Reply: 2.84

Task item: Entry under review: TTKCVRQYEGHVNEYAYLPLHVHI [E24I] . Reported protein stability index?
Reply: 2.1

Task item: Entry under review: TTPCVRQYEGHVNEYAYLPLHVHE [K3P] . Reported protein stability index?
Reply: 3.58

Task item: Entry under review: TTKCVRQYEGHVNEYAYLPLHVHA [E24A] . Reported protein stability index?
Reply: 1.17

Task item: Entry under review: TGKCVRQYEGHVNEYAYLPLHVHE [T2G] . Reported protein stability index?
Reply: 2.69

Task item: Entry under review: TTHCVRQYEGHVNEYAYLPLHVHE [K3H] . Reported protein stability index?
Reply: 2.71

Task item: Entry under review: TTKCVRQLEGHVNEYAYLPLHVHE [Y8L] . Reported protein stability index?
Reply: 2.79

Task item: Entry under review: TTKCVRQYEGHVNEYAYLPHHVHE [L20H] . Reported protein stability index?
Reply: 3

Task item: Entry under review: TTKCVRQYEKHVNEYAYLPLHVHE [G10K] . Reported protein stability index?
Reply: 3.44

Task item: Entry under review: TNKCVRQYEGHVNEYAYLPLHVHE [T2N] . Reported protein stability index?
Reply: 2.99

Task item: Entry under review: TTKCVRQYEMHVNEYAYLPLHVHE [G10M] . Reported protein stability index?
Reply: 2.06

Task item: Entry under review: TTKCVRQYEGHVNEYAYLPLHVWE [H23W] . Reported protein stability index?
Reply: 1.9

Sourced from the supplement of paper PMC10567573
